// reported DH82 pSTAT Assay, Pre-treatment IC50 per item
- assayTarget: Recombinant canine IL-31 produced in CHO cells (canine)
- Sequence (chain, as listed by the source limits assumed, form in doubt): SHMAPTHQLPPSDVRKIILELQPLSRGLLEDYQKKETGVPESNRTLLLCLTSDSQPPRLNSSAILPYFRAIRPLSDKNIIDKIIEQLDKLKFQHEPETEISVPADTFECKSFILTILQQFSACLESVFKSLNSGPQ
- test: cell-based or functional assay
Give the number; µg/ml is assumed, so skip it.

// below: answered binders
## Input Tell me measured DH82 pSTAT Assay, Pre-treatment IC50 for Chimeric 34D03 (antibody, V domains shown) VH: EVQLVESGGDLVKPGGSLKLSCAASGFSFSNYGMSWVRQTPDKRLEWVATISYGGSYTYYPDNIKGRFTISRDNAKNTLYLQMSSLKSEDTAMYYCVRGYGYDTMDYWGQGTSVTVSS VL: DILLTQSPASLAVSLGQRAIISCKASQSVSFAGTGLMHWYQQKPGQQPKLLIYRASNLEAGVPTRFSGSGSRTDFTLNIHPVEEEDAATYFCQQSREYPWTFGGGTKLEIKR please.
## Output 1.08

## Input Identify DH82 pSTAT Assay, Pre-treatment IC50 associated with the binder Mouse 34D03 (antibody, V domains shown) VH: EVQLVESGGDLVKPGGSLKLSCAASGFSFSNYGMSWVRQTPDKRLEWVATISYGGSYTYYPDNIKGRFTISRDNAKNTLYLQMSSLKSEDTAMYYCVRGYGYDTMDYWGQGTSVTVSS VL: DILLTQSPASLAVSLGQRAIISCKASQSVSFAGTGLMHWYQQKPGQQPKLLIYRASNLEAGVPTRFSGSGSRTDFTLNIHPVEEEDAATYFCQQSREYPWTFGGGTKLEIK
## Output 2.28

The record that follows has no DH82 pSTAT Assay, Pre-treatment IC50 shown yet.
## Input Please indicate DH82 pSTAT Assay, Pre-treatment IC50 recorded for Chimeric 11E12 (antibody, V domains shown) VH: QVQLQQSGAELVKPGASVKLSCKASGYTFKYYDINWVRQRPEQGLEWIGWIFPGDGGTKYNETFKGKATLTTDKSSSTAYMQLSRLTSEDSAVYFCARGGTSVIRDAMDYWGQGTSVTVSS VL: DIVLTQSPASLAVSLGQRATISCRASESVDNYGISFMHWYQQKPGQPPKLLIYRASNLESGIPARFSGSGSRTDFTLTINPVETDDVATYYCQQSNKDPLTFGAGTKLELKR
## Output 1.57
